Biological target: 5-hydroxytryptamine receptor 1E (Homo sapiens)
Sequence (P28566 whole entry): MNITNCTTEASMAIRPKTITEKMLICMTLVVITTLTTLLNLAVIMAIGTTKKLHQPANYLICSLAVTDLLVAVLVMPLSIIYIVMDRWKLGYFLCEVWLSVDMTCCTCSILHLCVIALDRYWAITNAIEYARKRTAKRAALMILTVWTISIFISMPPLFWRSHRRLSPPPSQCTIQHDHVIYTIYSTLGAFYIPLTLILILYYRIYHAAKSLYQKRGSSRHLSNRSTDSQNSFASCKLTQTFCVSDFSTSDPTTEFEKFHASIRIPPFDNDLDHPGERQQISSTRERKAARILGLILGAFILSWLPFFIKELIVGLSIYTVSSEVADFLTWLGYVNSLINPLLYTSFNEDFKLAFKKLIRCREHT

[
  {
    "STRUCTURE_SMILES": "COc1ccccc1N1CCN(CCN(C(=O)C2CCCCC2)c2ccccn2)CC1",
    "Ki": "> 10 µM"
  }
]

###

Biological target: Kappa-type opioid receptor (Homo sapiens)
Sequence (P41145 whole entry): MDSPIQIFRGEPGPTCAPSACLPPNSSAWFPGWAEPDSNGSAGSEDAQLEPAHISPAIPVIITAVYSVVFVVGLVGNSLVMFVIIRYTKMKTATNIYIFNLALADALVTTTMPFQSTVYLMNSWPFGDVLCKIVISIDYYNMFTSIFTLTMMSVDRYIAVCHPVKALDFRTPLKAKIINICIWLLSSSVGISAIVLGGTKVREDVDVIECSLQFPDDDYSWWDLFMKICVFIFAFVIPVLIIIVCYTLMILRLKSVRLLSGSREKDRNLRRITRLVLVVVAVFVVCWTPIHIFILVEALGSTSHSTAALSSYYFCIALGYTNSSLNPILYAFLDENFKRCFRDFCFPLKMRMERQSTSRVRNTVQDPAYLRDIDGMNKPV
EXPERIMENTAL_ENDPOINT: Ki (nM)

[
  {
    "STRUCTURE_SMILES": "COc1ccccc1N1CCN(CCN(C(=O)C2CCCCC2)c2ccccn2)CC1",
    "EXPERIMENTAL_VALUE": 412
  }
]

###

Biological target: Histamine H1 receptor (Homo sapiens, UniProt P35367)
Sequence (P35367 whole entry): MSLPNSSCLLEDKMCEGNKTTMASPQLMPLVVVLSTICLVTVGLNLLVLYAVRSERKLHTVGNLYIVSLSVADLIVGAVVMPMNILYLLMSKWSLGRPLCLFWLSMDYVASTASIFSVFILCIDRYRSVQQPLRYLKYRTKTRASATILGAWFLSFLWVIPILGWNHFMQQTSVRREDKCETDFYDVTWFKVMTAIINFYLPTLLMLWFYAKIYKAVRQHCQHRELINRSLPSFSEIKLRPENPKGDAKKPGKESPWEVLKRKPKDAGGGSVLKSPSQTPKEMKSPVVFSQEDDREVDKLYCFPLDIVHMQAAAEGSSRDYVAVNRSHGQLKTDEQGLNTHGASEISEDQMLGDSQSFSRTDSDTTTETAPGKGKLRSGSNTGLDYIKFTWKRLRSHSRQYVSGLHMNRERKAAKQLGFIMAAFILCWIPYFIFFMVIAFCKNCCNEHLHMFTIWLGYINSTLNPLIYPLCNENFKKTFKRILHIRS
pKi: −log10 of the molar value.

[
  {
    "STRUCTURE_SMILES": "COc1ccccc1N1CCN(CCN(C(=O)C2CCCCC2)c2ccccn2)CC1",
    "EXPERIMENTAL_SYSTEM": "Histamine H1 receptor (Homo sapiens, UniProt P35367)",
    "pKi": "< 5.00"
  }
]

###

Molecular target: 5-hydroxytryptamine receptor 2A (Homo sapiens, UniProt P28223)
Sequence (P28223 whole entry): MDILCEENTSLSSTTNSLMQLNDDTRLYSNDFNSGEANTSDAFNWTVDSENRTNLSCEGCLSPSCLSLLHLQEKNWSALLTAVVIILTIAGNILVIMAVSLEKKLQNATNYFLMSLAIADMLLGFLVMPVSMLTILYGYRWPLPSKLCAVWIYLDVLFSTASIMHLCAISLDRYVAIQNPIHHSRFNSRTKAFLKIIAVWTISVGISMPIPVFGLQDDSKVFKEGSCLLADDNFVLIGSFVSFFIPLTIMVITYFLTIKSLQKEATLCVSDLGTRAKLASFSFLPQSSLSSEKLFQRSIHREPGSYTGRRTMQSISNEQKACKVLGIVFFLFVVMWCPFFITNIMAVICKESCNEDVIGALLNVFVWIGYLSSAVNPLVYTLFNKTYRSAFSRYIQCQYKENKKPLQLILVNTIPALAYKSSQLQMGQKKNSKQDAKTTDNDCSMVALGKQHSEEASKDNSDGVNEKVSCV
pKi: −log10 of the molar value.

[
  {
    "STRUCTURE_SMILES": "COc1ccccc1N1CCN(CCN(C(=O)C2CCCCC2)c2ccccn2)CC1",
    "pKi": 5.20
  }
]

###

Target: Mu-type opioid receptor (Homo sapiens, UniProt P35372)
Sequence (P35372 whole entry): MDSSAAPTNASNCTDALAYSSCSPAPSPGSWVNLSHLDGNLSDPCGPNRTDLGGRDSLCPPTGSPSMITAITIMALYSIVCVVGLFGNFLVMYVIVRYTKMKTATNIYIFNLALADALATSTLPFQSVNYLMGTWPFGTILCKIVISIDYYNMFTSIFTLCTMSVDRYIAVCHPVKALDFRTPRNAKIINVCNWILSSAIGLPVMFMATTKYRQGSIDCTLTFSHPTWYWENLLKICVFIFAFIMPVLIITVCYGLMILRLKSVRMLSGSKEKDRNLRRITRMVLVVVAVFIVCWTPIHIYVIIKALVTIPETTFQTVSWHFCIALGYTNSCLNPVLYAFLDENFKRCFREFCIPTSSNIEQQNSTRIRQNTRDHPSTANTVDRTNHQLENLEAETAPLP
pKi: −log10 of the molar value.

[
  {
    "STRUCTURE_SMILES": "COc1ccccc1N1CCN(CCN(C(=O)C2CCCCC2)c2ccccn2)CC1",
    "pKi": "< 5.00"
  }
]

###

Molecular target: UniProtKB P10608
Sequence (P10608 whole entry): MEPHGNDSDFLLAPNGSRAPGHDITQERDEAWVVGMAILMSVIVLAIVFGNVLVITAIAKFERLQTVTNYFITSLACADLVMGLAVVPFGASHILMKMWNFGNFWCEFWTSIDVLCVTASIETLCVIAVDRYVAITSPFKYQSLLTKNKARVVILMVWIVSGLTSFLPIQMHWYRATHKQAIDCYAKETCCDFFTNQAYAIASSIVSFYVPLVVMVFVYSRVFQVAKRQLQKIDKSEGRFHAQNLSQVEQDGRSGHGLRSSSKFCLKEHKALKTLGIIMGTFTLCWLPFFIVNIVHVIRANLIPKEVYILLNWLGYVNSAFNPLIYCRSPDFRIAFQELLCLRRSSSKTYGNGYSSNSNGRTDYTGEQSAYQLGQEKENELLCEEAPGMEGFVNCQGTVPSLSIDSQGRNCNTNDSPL
pKi: −log10 of the molar value.

[
  {
    "STRUCTURE_SMILES": "COc1ccccc1N1CCN(CCN(C(=O)C2CCCCC2)c2ccccn2)CC1",
    "pKi": "< 5.00"
  }
]

###

Target: Delta-type opioid receptor (Homo sapiens)
Sequence (P41143 whole entry): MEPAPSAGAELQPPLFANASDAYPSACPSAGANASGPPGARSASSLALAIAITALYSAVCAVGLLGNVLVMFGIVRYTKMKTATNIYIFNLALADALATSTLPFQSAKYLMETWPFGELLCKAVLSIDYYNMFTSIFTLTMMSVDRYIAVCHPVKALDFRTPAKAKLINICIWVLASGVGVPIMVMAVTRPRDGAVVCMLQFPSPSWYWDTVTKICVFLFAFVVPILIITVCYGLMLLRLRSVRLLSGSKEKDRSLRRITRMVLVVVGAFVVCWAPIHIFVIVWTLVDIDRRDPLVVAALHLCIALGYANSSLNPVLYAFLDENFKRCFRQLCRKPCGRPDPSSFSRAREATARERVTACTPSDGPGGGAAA
pKi: −log10 of the molar value.

[
  {
    "STRUCTURE_SMILES": "COc1ccccc1N1CCN(CCN(C(=O)C2CCCCC2)c2ccccn2)CC1",
    "pKi": "< 5.00"
  }
]

###

Target: Histamine H2 receptor (Homo sapiens)
Sequence (P25021 whole entry): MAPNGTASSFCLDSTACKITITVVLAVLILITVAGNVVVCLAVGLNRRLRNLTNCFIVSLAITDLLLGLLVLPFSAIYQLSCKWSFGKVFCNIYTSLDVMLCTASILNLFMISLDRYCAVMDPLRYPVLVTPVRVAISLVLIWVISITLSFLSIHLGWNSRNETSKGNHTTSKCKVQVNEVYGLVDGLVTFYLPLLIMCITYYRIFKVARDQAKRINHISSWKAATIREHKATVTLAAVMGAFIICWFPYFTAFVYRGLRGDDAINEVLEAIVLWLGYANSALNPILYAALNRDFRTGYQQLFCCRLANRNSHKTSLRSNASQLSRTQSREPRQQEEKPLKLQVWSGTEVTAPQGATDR
pKi: −log10 of the molar value.
EXPERIMENTAL_ENDPOINT: pKi

[
  {
    "STRUCTURE_SMILES": "COc1ccccc1N1CCN(CCN(C(=O)C2CCCCC2)c2ccccn2)CC1",
    "EXPERIMENTAL_ENDPOINT": "pKi",
    "EXPERIMENTAL_VALUE": "< 5.00"
  }
]

###

Biological target: Histamine H3 receptor (Cavia porcellus)
Sequence (Q9JI35 whole entry): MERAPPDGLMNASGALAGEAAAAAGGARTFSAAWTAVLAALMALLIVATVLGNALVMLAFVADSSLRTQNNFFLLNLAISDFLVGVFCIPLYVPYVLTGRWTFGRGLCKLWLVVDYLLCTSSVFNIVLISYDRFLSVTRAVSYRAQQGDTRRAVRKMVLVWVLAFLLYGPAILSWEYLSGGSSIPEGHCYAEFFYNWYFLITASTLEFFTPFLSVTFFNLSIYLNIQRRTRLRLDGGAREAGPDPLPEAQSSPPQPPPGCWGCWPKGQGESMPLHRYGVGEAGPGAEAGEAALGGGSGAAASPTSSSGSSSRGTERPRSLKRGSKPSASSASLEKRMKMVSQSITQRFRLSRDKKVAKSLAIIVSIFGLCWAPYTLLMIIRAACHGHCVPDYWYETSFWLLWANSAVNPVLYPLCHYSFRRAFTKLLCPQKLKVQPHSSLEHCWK
pKi: −log10 of the molar value.
EXPERIMENTAL_ENDPOINT: pKi

[
  {
    "STRUCTURE_SMILES": "COc1ccccc1N1CCN(CCN(C(=O)C2CCCCC2)c2ccccn2)CC1",
    "EXPERIMENTAL_VALUE": "< 5.00"
  }
]
